Listed below: phosphorylation enrichment values for each entry.
study target: Jak2 (UniProt O60674)
Sequence (O60674 whole entry, looked up): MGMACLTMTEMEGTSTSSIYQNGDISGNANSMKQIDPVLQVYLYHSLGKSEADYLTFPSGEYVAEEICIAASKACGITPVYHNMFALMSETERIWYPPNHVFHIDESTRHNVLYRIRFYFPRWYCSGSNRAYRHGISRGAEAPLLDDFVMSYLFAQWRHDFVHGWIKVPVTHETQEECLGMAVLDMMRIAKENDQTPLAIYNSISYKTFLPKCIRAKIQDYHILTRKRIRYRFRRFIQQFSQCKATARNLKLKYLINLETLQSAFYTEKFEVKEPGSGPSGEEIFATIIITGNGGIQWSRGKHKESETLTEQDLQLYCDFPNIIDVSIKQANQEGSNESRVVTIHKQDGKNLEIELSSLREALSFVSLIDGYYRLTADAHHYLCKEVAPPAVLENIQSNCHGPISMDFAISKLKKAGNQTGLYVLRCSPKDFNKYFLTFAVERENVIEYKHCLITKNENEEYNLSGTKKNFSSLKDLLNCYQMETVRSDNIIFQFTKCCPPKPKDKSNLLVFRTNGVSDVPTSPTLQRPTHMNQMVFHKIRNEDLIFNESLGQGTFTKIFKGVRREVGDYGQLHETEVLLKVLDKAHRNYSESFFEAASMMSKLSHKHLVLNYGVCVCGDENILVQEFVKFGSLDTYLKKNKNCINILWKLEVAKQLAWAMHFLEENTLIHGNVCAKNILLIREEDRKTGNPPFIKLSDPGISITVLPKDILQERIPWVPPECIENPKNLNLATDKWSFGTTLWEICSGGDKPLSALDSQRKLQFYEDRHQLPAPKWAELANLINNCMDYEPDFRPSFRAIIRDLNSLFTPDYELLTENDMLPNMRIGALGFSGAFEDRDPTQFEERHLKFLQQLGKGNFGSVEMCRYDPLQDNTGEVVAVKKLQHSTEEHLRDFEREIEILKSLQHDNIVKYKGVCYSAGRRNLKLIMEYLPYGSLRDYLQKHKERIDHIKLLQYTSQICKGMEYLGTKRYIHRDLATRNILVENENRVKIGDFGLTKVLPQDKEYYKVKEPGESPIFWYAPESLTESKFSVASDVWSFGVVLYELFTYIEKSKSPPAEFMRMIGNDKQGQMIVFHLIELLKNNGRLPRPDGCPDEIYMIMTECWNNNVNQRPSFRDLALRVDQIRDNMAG
test protocol: phosphorylation enrichment, bacterial display (enrichment ratio); higher = better substrate or ligand; peptides without Tyr show the background
Answer with the value's number alone.

monomer sequence	phosphorylation enrichment
RAIDMYLMGCF [GABRB2_Y308_K303R]	1.83
LEIETYPRLLD [KRT12_Y429_R430P]	1.85
FSQQTYFRVSN [ABCD1_Y180_YF]	3.23
QKINNYLTVPA [SLC9A1_Y683]	0.615

Looking for the measured phosphorylation enrichment of TTIVSYRASQP [MKI67_Y1737_K1734I] , can you help?
0.6

Looking for the measured phosphorylation enrichment of GTPVMYTYDEY [COL10A1_Y623] , can you help?
1.04

Looking for the measured phosphorylation enrichment of SSFPDYLAAVD [GLB1_Y154_D151Y_YF] , can you help?
0.925

Looking for the measured phosphorylation enrichment of GSSEDYLHMVH [NIPBL_Y247] , can you help?
0.874

Looking for the measured phosphorylation enrichment of VTSLKYSTSPF [BRIP1_Y916_YF] , can you help?
0.711

Looking for the measured phosphorylation enrichment of ALAHKYQGGGG [HBB_Y146_H147Q] , can you help?
0.527

Looking for the measured phosphorylation enrichment of FPSLPYSPVSS [CAMKK2_Y128_C123Y_YF] , can you help?
0.526

Looking for the measured phosphorylation enrichment of GHGEEYPVAGA [NOTCH3_Y2221_A2223V] , can you help?
0.682

Looking for the measured phosphorylation enrichment of PRPAGYPSMVS [CACNA1C_Y1832_T1835M] , can you help?
0.475

Looking for the measured phosphorylation enrichment of NGEDPYAGSTD [XRCC1_Y515] , can you help?
0.809

Looking for the measured phosphorylation enrichment of YPPDGYSRHCE [CTNND1_Y213_Y217C] , can you help?
0.816

Looking for the measured phosphorylation enrichment of RARIRYAQEHD [NSD1_Y1987] , can you help?
0.691

Looking for the measured phosphorylation enrichment of LRIAVYHEILI [CREBBP_Y1450_T1447I] , can you help?
4.19

Looking for the measured phosphorylation enrichment of KILGRYYETGS [PAX2_Y72] , can you help?
0.952

###

study target: FGFR1 (UniProt P11362)
Sequence (P11362 whole entry, looked up): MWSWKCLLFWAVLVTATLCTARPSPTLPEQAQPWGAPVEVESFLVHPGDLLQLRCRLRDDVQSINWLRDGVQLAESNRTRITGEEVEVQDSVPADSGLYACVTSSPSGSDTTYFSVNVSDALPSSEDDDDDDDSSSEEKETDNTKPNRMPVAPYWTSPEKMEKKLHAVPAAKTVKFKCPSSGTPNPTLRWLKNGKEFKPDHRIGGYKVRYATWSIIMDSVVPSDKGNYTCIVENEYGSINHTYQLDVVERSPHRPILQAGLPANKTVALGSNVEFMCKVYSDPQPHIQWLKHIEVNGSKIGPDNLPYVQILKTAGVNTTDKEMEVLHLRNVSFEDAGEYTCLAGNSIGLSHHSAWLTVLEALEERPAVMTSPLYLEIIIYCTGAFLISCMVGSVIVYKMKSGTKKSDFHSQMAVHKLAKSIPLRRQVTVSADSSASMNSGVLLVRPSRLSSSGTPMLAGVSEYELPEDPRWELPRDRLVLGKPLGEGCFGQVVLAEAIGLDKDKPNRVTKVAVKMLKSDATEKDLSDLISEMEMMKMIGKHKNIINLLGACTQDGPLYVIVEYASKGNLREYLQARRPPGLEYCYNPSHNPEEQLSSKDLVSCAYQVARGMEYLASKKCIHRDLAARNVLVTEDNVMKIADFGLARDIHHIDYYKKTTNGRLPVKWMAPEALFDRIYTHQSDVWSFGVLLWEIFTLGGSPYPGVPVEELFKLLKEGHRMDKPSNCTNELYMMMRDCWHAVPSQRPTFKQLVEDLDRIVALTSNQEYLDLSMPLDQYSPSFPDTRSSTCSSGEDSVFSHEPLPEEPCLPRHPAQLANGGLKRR
test protocol: phosphorylation enrichment, bacterial display (enrichment ratio); higher = better substrate or ligand; peptides without Tyr show the background
Hi, to clarify the labels: Fulfilled covers phosphorylation enrichment from 0.5 upward, Not fulfilled covers anything below 0.5.

Would you please look over these solved cases?
monomer sequence	answer label
QNTGNYYDLYG [PTPN11_Y62_D61N]	Fulfilled
GGGMFYPLDLF	Not fulfilled
NSRYTCKLEVK [USH2A_Y3747_Y3747C]	Not fulfilled
SVVVPYEPTEV [TP53_Y220_P223T]	Not fulfilled
LRNRVYEVPVE [SLC26A3_Y756]	Fulfilled

Can RASQEYHIVKK [PDZD2_Y557_S552R] be said to have phosphorylation enrichment at or above 0.5?
Fulfilled

Can QKINNYLTVPA [SLC9A1_Y683] be said to have phosphorylation enrichment at or above 0.5?
Fulfilled

###

System: c-Abl (mouse)
test protocol: phosphorylation enrichment, bacterial display (enrichment ratio); higher = better substrate or ligand; peptides without Tyr show the background
Hi, to clarify the labels: Yes covers phosphorylation enrichment from 0.7 upward, No covers anything below 0.7.

Would you please look over these solved cases?
monomer sequence	study target	answer label
ILGTYYETGSI [PAX2_Y73_R71T]	c-Abl (mouse)	Yes
KAIMTYVPSFF [ACTN4_Y260_S262P_YF]	c-Abl (mouse)	No
LFDPDYMKVIL [CYP4A22_Y104_YF]	c-Abl (mouse)	Yes
KDKLPYPFDDP [GPX2_Y125_YF]	c-Abl (mouse)	No
SRASFYRKGGC [ALK_Y1283_Y1278S_YF]	c-Abl (mouse)	No
SIKDKYVTAFY [KCNH2_Y611_L615F]	c-Abl (mouse)	No

Can LNPLFYSLRNK [OR5R1_Y290_I289F] be said to have phosphorylation enrichment at or above 0.7?
No

Can AALVQYFMEHH [PTPN11_Y80_E76A_YF] be said to have phosphorylation enrichment at or above 0.7?
No

Can SVVVPYEPPGV [TP53_Y220_E224G] be said to have phosphorylation enrichment at or above 0.7?
No

Can RNVLVYDKLNV [ROR2_Y624] be said to have phosphorylation enrichment at or above 0.7?
Yes

Can RAILDYIASKY [GSTA3_Y74_N73D] be said to have phosphorylation enrichment at or above 0.7?
No

Can RAYRHYLLKQK [SCN2A_Y1919_R1918H] be said to have phosphorylation enrichment at or above 0.7?
No

###

Test system: Fer (mouse)
test protocol: phosphorylation enrichment, bacterial display (enrichment ratio); higher = better substrate or ligand; peptides without Tyr show the background
parameter measured: phosphorylation enrichment
Answer with the value's number alone.

Answered cases to consult:
monomer sequence	number
IPGRYYETGSI [PAX2_Y73_L69P]	0.331
YRTGHYLCNAC [GATA1_Y223_D218Y]	0.271
REEIKYMLWLS [OTC_Y55_G50R]	0.955
GQETSYIEDNC [PAH_Y24]	0.51
EQFELYCEMGS [CBL_Y371_YF]	1
SENAFYLSPDI [COL6A3_Y2827]	0.724

Next sequence, please.
Looking for the measured phosphorylation enrichment of GAVGHYVLAER [HFE_Y342_M339V] , can you help?
0.363

###

Listed below: phosphorylation enrichment values for each entry.
Test system: c-Abl (mouse)
test protocol: phosphorylation enrichment, bacterial display (enrichment ratio); higher = better substrate or ligand; peptides without Tyr show the background
Answer with the value's number alone.

monomer sequence	parameter measured	number
GAPATYEGDAR [CACNA1A_Y1013]	phosphorylation enrichment	0.397
IHSGIYYKPES [L2HGDH_Y102]	phosphorylation enrichment	18.7
LLLLFYVVRYC [MPZ_Y177]	phosphorylation enrichment	0.574
YPLELYERVRI [PRKCG_Y312_M317I]	phosphorylation enrichment	0.58
FQKNSYSEELR [LMNA_Y211_I210S]	phosphorylation enrichment	0.544

Looking for the measured phosphorylation enrichment of PKEQKYSFLQD [GH1_Y68_N73D] , can you help?
1.05

Looking for the measured phosphorylation enrichment of ISSLRYKLLEE [TRPC6_Y896_E897K] , can you help?
0.603

Looking for the measured phosphorylation enrichment of GGPTFYIDTNA [ACTL6A_Y69_YF] , can you help?
0.775

###

Listed below: phosphorylation enrichment values for each entry.
System: c-Src
test protocol: phosphorylation enrichment, bacterial display (enrichment ratio); higher = better substrate or ligand; peptides without Tyr show the background

monomer sequence	phosphorylation enrichment
THQKSYQPGRK [CEFIP_Y210_N208K]	0.322
AHLLQYNHRVK [LGALS3_Y221]	0.459
TEAGDYKLCFD [TMED1_Y103]	0.54
SRLSAYPALEG [CD5_Y465_H461R]	0.533
SVEVPYEPPEV [TP53_Y220_V217E]	0.549
RRAKGYPIDLF [ITGB2_Y125_YF]	1.25
RVLQLYGCSPS [ASTL_Y279_K277Q]	1.38
TVFENYVADIE [RHOA_Y42]	0.521

Looking for the measured phosphorylation enrichment of YASALYRQRRS [FGF11_Y162] , can you help?
0.659

Looking for the measured phosphorylation enrichment of FSAPNYCYRCG [PPP2CA_Y265] , can you help?
0.382

Looking for the measured phosphorylation enrichment of NAGDYYDLYGG [PTPN11_Y63_T59A] , can you help?
6.14

Looking for the measured phosphorylation enrichment of CYSSEYHYVGG [CTSC_Y345_Y340C] , can you help?
2.02

Looking for the measured phosphorylation enrichment of RNVLVYDKLNV [ROR2_Y624] , can you help?
3.99

Looking for the measured phosphorylation enrichment of LQLLGDRPVFS [CHST6_Y358_Y358D_YF] , can you help?
0.377

###

study target: c-Src SH2;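 note: peptide library displayed on the E. coli surface as eCPX fusions, selected cells deep-sequenced, score is each peptide's frequency after selection divided by its frequency in the input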
test protocol: SH2 binding enrichment of the phosphorylated peptide, bacterial display (enrichment ratio); higher = better substrate or ligand; peptides without Tyr show the background
Listed below: SH2 binding enrichment values for each entry.
Answer with the value's number alone.

monomer sequence	number
LWPIWYRCHRP [MRGPRX1_Y130]	0.416
ENRKYYMDLKE [PURA_Y156]	0.874
KGVDRYNPENL [EIF3K_Y21_I18V]	0.465
LLRLAYLADIF [ZBED5_Y476]	1.34
SREALYNEMDP [CACNA1A_Y794]	1.28
GEDEPYSEPYA [APBA1_Y183]	0.582
PGLSSYGVPGS [FLNB_Y1530_A1534G]	0.534
PELINCHQHNS [BTK_Y361_Y361C]	0.641
DAKAIYDFTDT [PDK1_Y136]	0.604
SILAVYSKDNY [PANK2_Y400]	0.855

Looking for the measured SH2 binding enrichment of RMETAYGPSVT [MXRA5_Y2717_E2716A] , can you help?
0.405

Looking for the measured SH2 binding enrichment of RAIDMYLMGCF [GABRB2_Y308_K303R] , can you help?
0.332

Looking for the measured SH2 binding enrichment of MGSFNYLGFPR [SPTLC2_Y178_A182P_YF] , can you help?
0.865

Looking for the measured SH2 binding enrichment of CKSVHYDLVFL [COL22A1_Y37] , can you help?
0.986
